Data credit: patent US9845323B2

System: K. pneumoniae H521 (KPC, SHV, TEM)
Protocol details: Agar dilution MIC (CLSI), compound alone
Assay type: cell-based
Condition details: Klebsiella pneumoniae
Could you please report measured MIC for the items listed next?

For this molecule ( O=C1N2C[C@@H](CC[C@H]2c2nnc(Cc3ccc(Cl)cc3)o2)N1OS(=O)(=O)O [Example 10] ), measured MIC is > 32 µg/mL

For this molecule ( O=C1N2C[C@@H](CC[C@H]2c2nnc(CC3CCNCC3)o2)N1OS(=O)(=O)O [Example 3] ), measured MIC is > 32 µg/mL

For this molecule ( O=C1N2C[C@@H](CC[C@H]2c2nnc(Cc3ccc(O)cc3)o2)N1OS(=O)(=O)O [Example 13] ), measured MIC is > 32 µg/mL

For this molecule ( Nc1ccc(Cc2nnc([C@@H]3CC[C@@H]4CN3C(=O)N4OS(=O)(=O)O)o2)cc1 [Example 11] ), measured MIC is > 32 µg/mL

For this molecule ( O=C1N2C[C@@H](CC[C@H]2c2nnc(Cc3ccccc3)o2)N1OS(=O)(=O)O [Example 5] ), measured MIC is 32 µg/mL
